hERG current change (%, negative = inhibition) at 10uM values for the compounds below.
Experimental System: human ether-à-go-go-related gene (hERG) potassium channel (human)
Assay Name: primary screen, population patch clamp on CHO cells stably expressing hERG; higher = less effect of the substance
The campaign covered roughly 310,000 compounds. About 14,000 (4.5%) showed an effect of 50% or more. Effects have a minus sign here. Shown is part of a subset that was picked to be rich in strong results.
Metric: hERG current change (%, negative = inhibition) at 10uM

Compound: Cc1cccc(N2CCN(CC(O)COc3ccccc3Cl)CC2)c1 (centres unmarked)
Experimental System: human ether-à-go-go-related gene (hERG) potassium channel (human)
Result: -56%
//
Compound: CCn1cc(CN2CCN(Cc3cccc(OC)c3)C(CCO)C2)c(C)n1 (centres unmarked)
Experimental System: human ether-à-go-go-related gene (hERG) potassium channel (human)
Result: -14.4%
//
Compound: COc1ccc(NC(=O)COC(=O)c2ccccc2SCC(=O)N2CCCC2)cc1
Experimental System: human ether-à-go-go-related gene (hERG) potassium channel (human)
Result: -53.9%
//
Compound: CCCNC(=O)CS(=O)(=O)Cc1nc(-c2ccccc2C)oc1C
Experimental System: human ether-à-go-go-related gene (hERG) potassium channel (human)
Result: 3.88%
//
Compound: CC(=O)NCCn1c(SCC(=O)NCc2ccco2)nc2ccccc2c1=O
Experimental System: human ether-à-go-go-related gene (hERG) potassium channel (human)
Result: -23.9%
//
Compound: CC1(C)CC(O)CC(C)(C)N1CC(O)COCc1ccccc1 (centres unmarked)
Experimental System: human ether-à-go-go-related gene (hERG) potassium channel (human)
Result: 11.7%
//
Compound: Cc1cccc(OCC(O)CN2C(C)(C)CC(O)CC2(C)C)c1C (centres unmarked)
Experimental System: human ether-à-go-go-related gene (hERG) potassium channel (human)
Result: -51.3%
//
Compound: O=C(CSc1nc2ccccc2c(=O)n1CCCO)NCc1ccccc1
Experimental System: human ether-à-go-go-related gene (hERG) potassium channel (human)
Result: -41.5%

###

hERG current change (%, negative = inhibition) at 10uM values for the compounds below.
Experimental System: human ether-à-go-go-related gene (hERG) potassium channel (human);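 also: peak tail current of the secondary pulse compared with the same well before compound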
Assay Name: primary screen, population patch clamp on CHO cells stably expressing hERG; higher = less effect of the substance
In all, about 310,000 compounds went through this assay and about 14,000 (4.5%) showed an effect of 50% or more. Effects have a minus sign here. The list comes from a sample in which strong results are over-represented; it also holds close analogues and randomly drawn compounds.
Metric: hERG current change (%, negative = inhibition) at 10uM (%)

Compound: Cn1cc(C(c2ccccc2OCC(=O)O)c2cn(C)c3ccccc23)c2ccccc21
Numeric Value: 3.58
//
Compound: CCCCCCN=C(C)c1ccccc1O
Numeric Value: 20.2
//
Compound: Cc1ccc(OCc2cc(C(=O)N3CCC(Oc4cccnc4)CC3)no2)cc1C
Numeric Value: -56.7
//
Compound: CC(C)(C)c1cc(NC(=O)Nc2ccccc2OC(F)(F)F)no1
Numeric Value: 26.4
//
Compound: Cc1ccc(NC(=S)N(C)N)cc1Cl
Numeric Value: 16.8
//
Compound: CCN(CC(=O)Nc1ccc(OC)cc1)CC(=O)Nc1ccc(Br)cc1F
Numeric Value: -67.4
//
Compound: Br.CCCCCN1C2=NCCN2c2ccccc21
Numeric Value: -71.4
//
Compound: COc1ccc(NC(=O)CN(C)CC(=O)Nc2ccc(Cl)cc2F)cc1
Numeric Value: -10.6
//
Compound: COc1ccc(OCc2cc(C(=O)NC(C)Cc3cnccn3)no2)c(Cl)c1 (centres unmarked)
Numeric Value: -4.5
//
Compound: O=C(c1cc(COc2cccc(C(F)(F)F)c2)on1)N1CCC(c2ccccc2)CC1
Numeric Value: 6.79
//
Compound: O=C(COC(=O)c1cc([N+](=O)[O-])ccc1N1CCOCC1)Nc1cccc(F)c1
Numeric Value: -28.5
//
Compound: CC(=O)Nc1ccc(NC(=O)COC(=O)c2cc([N+](=O)[O-])ccc2N2CCOCC2)cc1
Numeric Value: 0.326
//
Compound: COc1cc(Cl)ccc1OCc1cc(C(=O)NC(C)Cc2cccnc2)no1 (centres unmarked)
Numeric Value: -30.7
//
Compound: CC(C)CCNC(=O)c1cc([N+](=O)[O-])ccc1N1CCOCC1
Numeric Value: -17.1

###

Experimental System: human ether-à-go-go-related gene (hERG) potassium channel (human);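 also: peak tail current of the secondary pulse compared with the same well before compound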
Assay Name: primary screen, population patch clamp on CHO cells stably expressing hERG; higher = less effect of the substance
About 14,000 (4.5%) of roughly 310,000 compounds showed an effect of 50% or more. The effect is printed as a negative number. Many of the other results were omitted from the sample, so strong results are more common in it than they were.
Metric: hERG current change (%, negative = inhibition) at 10uM (%)

Compound: CCCn1c(NC(=O)c2ccc(C)cc2)nc2ccccc21
Numeric Value: -22.8
//
Compound: CCOC(=O)N1CCC(NC(=O)Cc2ccccc2)CC1
Numeric Value: 15.6
//
Compound: CCC(=O)Nc1nc2ccccc2n1CCN(CC)CC
Numeric Value: -14.1
//
Compound: CCN(CC)CCn1c(NC(=O)c2ccc(Cl)cc2)nc2ccccc21
Numeric Value: -31.5
//
Compound: CCOC(=O)CSc1ccc2nnc(-c3ccncc3)n2n1
Numeric Value: -31.4
//
Compound: Cc1cc(NC(=O)CSc2ccc3nnc(-c4cccc(F)c4)n3n2)no1
Numeric Value: -14.3
//
Compound: CCOC(=O)N1CCC(Nc2ccc3nnc(-c4ccccc4)n3n2)CC1
Numeric Value: -82
//
Compound: CCc1ccc(NC(=O)C[n+]2cc(-c3ccc(C)cc3)n3c2CCC3)cc1.[Cl-]
Numeric Value: -63.1
//
Compound: Cc1ccc(-c2nnn(CC(=O)N(Cc3cccs3)C(C(=O)NC(C)(C)C)c3ccco3)n2)o1 (stereo not shown)
Numeric Value: 14.4
//
Compound: O=C(CSc1ccc2nnc(-c3cccs3)n2n1)N1CCCC1
Numeric Value: -43.4
//
Compound: CCOC(=O)CSc1ccc2nnc(-c3cccs3)n2n1
Numeric Value: -51.2
//
Compound: CCSc1ccc2nnc(-c3cccs3)n2n1
Numeric Value: -34
//
Compound: CCN(CC)CCn1c(NC(=O)c2ccc(C)cc2)nc2ccccc21
Numeric Value: -63.2
//
Compound: Cc1ccc2nc(NCc3ccc(F)cc3)c3nncn3c2c1
Numeric Value: 2.23
//
Compound: O=C(O)CCCSc1nccn1-c1ccccc1
Numeric Value: 22.3
//
Compound: COc1ccccc1/C=N\Nc1ccccc1[N+](=O)[O-]
Numeric Value: 21.7

###

Experimental System: human ether-à-go-go-related gene (hERG) potassium channel (human, UniProt Q12809);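 also: peak tail current of the secondary pulse compared with the same well before compound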
Sequence (Q12809 whole entry, looked up): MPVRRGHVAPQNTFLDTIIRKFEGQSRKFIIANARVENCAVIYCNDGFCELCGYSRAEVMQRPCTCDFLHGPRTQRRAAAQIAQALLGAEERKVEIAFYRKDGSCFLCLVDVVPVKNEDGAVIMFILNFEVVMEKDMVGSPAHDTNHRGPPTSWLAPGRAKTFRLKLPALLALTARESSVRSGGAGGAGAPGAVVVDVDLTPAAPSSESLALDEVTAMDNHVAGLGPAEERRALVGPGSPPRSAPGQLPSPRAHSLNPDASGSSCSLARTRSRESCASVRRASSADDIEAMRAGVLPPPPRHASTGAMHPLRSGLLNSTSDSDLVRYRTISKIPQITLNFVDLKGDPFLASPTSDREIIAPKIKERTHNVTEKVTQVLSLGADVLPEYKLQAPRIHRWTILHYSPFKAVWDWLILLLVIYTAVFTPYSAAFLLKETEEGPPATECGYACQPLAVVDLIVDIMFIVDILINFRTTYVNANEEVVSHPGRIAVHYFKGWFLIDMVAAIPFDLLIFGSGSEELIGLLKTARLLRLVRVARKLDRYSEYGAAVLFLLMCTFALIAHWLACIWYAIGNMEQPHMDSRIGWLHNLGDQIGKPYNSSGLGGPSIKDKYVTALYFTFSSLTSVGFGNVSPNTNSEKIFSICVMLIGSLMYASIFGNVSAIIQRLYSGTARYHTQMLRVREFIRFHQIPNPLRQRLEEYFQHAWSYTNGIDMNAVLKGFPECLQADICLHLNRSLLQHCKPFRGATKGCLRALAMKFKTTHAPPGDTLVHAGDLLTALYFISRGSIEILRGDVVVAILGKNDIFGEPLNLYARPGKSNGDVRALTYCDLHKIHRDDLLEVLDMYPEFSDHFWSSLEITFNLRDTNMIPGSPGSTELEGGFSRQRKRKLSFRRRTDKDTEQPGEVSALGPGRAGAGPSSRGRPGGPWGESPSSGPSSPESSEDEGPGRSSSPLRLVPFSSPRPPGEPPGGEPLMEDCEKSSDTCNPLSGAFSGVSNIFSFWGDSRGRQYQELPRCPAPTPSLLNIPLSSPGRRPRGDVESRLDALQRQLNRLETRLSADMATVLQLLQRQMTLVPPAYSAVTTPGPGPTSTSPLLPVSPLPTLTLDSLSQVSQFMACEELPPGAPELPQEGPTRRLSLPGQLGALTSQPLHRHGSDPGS
Assay Name: primary screen, population patch clamp on CHO cells stably expressing hERG; higher = less effect of the substance
Hit rate of the full screen: of about 310,000 compounds, about 14,000 (4.5%) showed an effect of 50% or more. The effect is printed as a negative number. The entries come from a sample that favours strong results as a whole.
Metric: hERG current change (%, negative = inhibition) at 10uM

Compound: COC(=O)C1=C(c2cccc(C#N)c2)C[C@@H]2CC[C@H]1N2C(=O)N1CCC(C)CC1
Result: -17.1%
--
Compound: CC1CC(Nc2ccccc2)=CC(=O)O1 (stereo not shown)
Result: 24.7%
--
Compound: COc1ccc(OC)c(NC(=O)CSc2nnc(Cc3cccn3C)n2-c2ccc(F)cc2)c1
Result: -10.4%
--
Compound: Cc1cc(C)nc(N/N=C/c2cn[nH]c2-c2ccc(F)cc2)n1
Result: 8.66%
--
Compound: COC(=O)n1ccc(C(=O)Nc2ccccc2F)n1
Result: -8.09%
--
Compound: CC(OC(=O)c1cc(Br)ccc1O)C(=O)NC1(C#N)CCCCC1 (stereo not shown)
Result: 27.3%
--
Compound: COc1ccc(N2CCN(C(=O)CCNC(=O)Cn3ccc4ccccc4c3=O)CC2)cc1
Result: -8.61%

###

hERG current change (%, negative = inhibition) at 10uM values for the molecules below.
Experimental System: human ether-à-go-go-related gene (hERG) potassium channel (human);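 also: peak tail current of the secondary pulse compared with the same well before compound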
Assay Name: primary screen, population patch clamp on CHO cells stably expressing hERG; higher = less effect of the substance
The campaign covered roughly 310,000 compounds. About 14,000 (4.5%) showed an effect of 50% or more. The effect is printed as a negative number. Only a selection was taken, and strong results are over-represented in it overall.
Metric: hERG current change (%, negative = inhibition) at 10uM (%)

Molecule: O=C(NC1CC1)C1CCN(C2CCN(C(=O)/C=C/c3cccc(F)c3F)CC2)CC1
Numeric Value: -22.1
//
Molecule: NC(=O)CC(NC(=O)c1ccccc1)c1ccc(N2CCN(c3ccccc3)CC2)c([N+](=O)[O-])c1 (stereo not drawn)
Numeric Value: 1.33
//
Molecule: CCOC(=O)c1cnn(CCOC(=O)C(C)(C)C)c1NC(=O)C(C)(C)C
Numeric Value: 12.8
//
Molecule: Br.C=CCn1c(C)csc1=Nc1ccc(C(=O)O)cc1
Numeric Value: 13.5
//
Molecule: O=C(Nc1cccc2c1CCCC2)C1CCCN(S(=O)(=O)c2cccc3nonc23)C1 (stereo not drawn)
Numeric Value: -1.23
//
Molecule: Cc1ccc(C(=O)Oc2coc(CSc3nnc(NC(=O)C4CC4)s3)cc2=O)cc1
Numeric Value: 16.6
//
Molecule: CCOC(=O)SC1=N/C(=C\c2ccc(N(C)C)cc2)C(=O)S1
Numeric Value: 14.9
//
Molecule: CCCn1cc(CN2CCCC(C(=O)c3cccc(OC(C)C)c3)C2)c(C)n1 (stereo not drawn)
Numeric Value: -35.5
//
Molecule: COc1ccc(-c2c(C)oc3c(CN4CCOCC4)c(O)ccc3c2=O)cc1
Numeric Value: 7.31
//
Molecule: Cc1cccc[n+]1CCCCCCCCCC[n+]1ccccc1C.[Br-]
Numeric Value: 37.8
//
Molecule: CCOc1cc(N2CCOCC2)c(OCC)cc1NC(=O)C(C)(C)C
Numeric Value: 17.4
//
Molecule: COc1ccc(N2Cc3ccccc3C2)cc1Cl
Numeric Value: -59.9
//
Molecule: CCC[n+]1c2ccccc2cc2ccccc21.[I-]
Numeric Value: 23.7
//
Molecule: O=C(NC1CC1)C1CCN(C2CCN(C(=O)/C=C/c3ccc(F)cc3)CC2)CC1
Numeric Value: -62.9
//
Molecule: COc1cc(C2c3c(oc4c(C)cc(C)cc4c3=O)C(=O)N2Cc2cccnc2)ccc1O (stereo not drawn)
Numeric Value: 5.03
//
Molecule: CC(C)(C)c1ccc(C(=O)N2CCC(C(=O)NC3CC3)CC2)cc1
Numeric Value: -2.74
//
Molecule: CCOc1ccccc1CN1CCC(N2CCC(C(=O)NC3CC3)CC2)CC1
Numeric Value: 1.53
//
Molecule: CCCn1cc(CN2CCCC(C(=O)c3cccc(OC)c3)C2)c(C)n1 (stereo not drawn)
Numeric Value: -51
//
Molecule: [Cl-].c1ccc(C[n+]2cccc3c4ccccc4ccc32)cc1
Numeric Value: -15
//
Molecule: Cn1c(SCC(=O)c2ccccc2)nnc1-c1ccc(O)cc1
Numeric Value: -11.2
//
Molecule: O=S(=O)(Cc1ccccc1)N1CCN(Cc2ccc(F)cc2Cl)CC1
Numeric Value: 4.56
//
Molecule: O=C(COC(=O)c1cccc(S(=O)(=O)NCc2ccccc2)c1)Nc1ccccc1OC(F)F
Numeric Value: 11.5
//
Molecule: CCCCCCCC[n+]1cccc2c3ccccc3ccc21.[I-]
Numeric Value: -84.3
//
Molecule: CCCCCCCCCCCCCCCC[n+]1cccc2ccccc21.[I-]
Numeric Value: -71.2
//
Molecule: CCN(CC)CCNC(=O)c1cc([N+](=O)[O-])c(N(C)C)cc1OC.Cl
Numeric Value: -12
//
Molecule: CC(C)(C)c1ccc(C(=O)N2CCC(C(=O)NC3CCCCCC3)CC2)cc1
Numeric Value: -40
//
Molecule: CCCn1cc(CN2CCCC(C(=O)c3ccc4c(c3)OCO4)C2)c(C)n1 (stereo not drawn)
Numeric Value: -55.4

Hello, the source for this data is paper PMC4336329, in case you need it.
